- Test system: multiple drug resistant acute promyelocytic leukemia cells (HL-60/RV)
- Protocol Text: In vitro cytotoxicity, CellTiter-Glo 96 h, HL60/RV
- Condition: Homo sapiens, HL-60, read-out: Cytotoxic potency (IC50 class), HL60/RV
Reported values of IC50 for individual entries

# input molecule: CC[C@@]1(O)C(=O)OCc2c1cc1n(c2=O)Cc2c-1nc1cc(F)c(C)c3c1c2[C@@H](NC(=O)CO)CC3 [Compound 8a] ; wanted: its IC50 10 to 100 nM

---

- Test system: Hodgkin's lymphoma cells (L540cy)
- Protocol Text: In vitro cytotoxicity, CellTiter-Glo 96 h, L540cy
- Condition: read-out: Cytotoxic potency (IC50 class), L540cy
Reported values of IC50 for individual entries

# input compound: CC[C@@]1(O)C(=O)OCc2c1cc1n(c2=O)Cc2cc3cc4c(cc3nc2-1)OCO4 [Compound 6o] ; wanted: its IC50 1 to 10 nM

# input compound: CCC(C)c1c2c(nc3cc4c(cc13)OCO4)-c1cc3c(c(=O)n1C2)COC(=O)[C@]3(O)CC (stereo partly shown) [Compound 6b] ; wanted: its IC50 1 to 10 nM

# input compound: CC[C@@]1(O)C(=O)OCc2c1cc1n(c2=O)Cc2c-1nc1cc3c(cc1c2CNCC1CCNCC1)OCO3 [Compound 5u] ; wanted: its IC50 10 to 100 nM

Continue with the next compound.
# input compound: CC[C@@]1(O)C(=O)OCc2c1cc1n(c2=O)Cc2c-1nc1cc3c(cc1c2C1CCCCCC1)OCO3 [Compound 6j] ; wanted: its IC50 1 to 10 nM
